Test system: Cytomegalovirus (CMV)
Assay: CMV infectious center assay in MRC-5 cells
Type: cell-based, human cytomegalovirus (Towne strain)
Settings: Human betaherpesvirus 5, MRC5, read-out: ACV Efficacy EC50 (μM), CMV; with n-Docosanol, 10 mM
recordedEndpoint: EC50

>>> measuredresult("Nc1nc2c(ncn2COCCO)c(=O)[nH]1 [ACV, 9-(2-hydroxy)-ethoxymethyl-guanine]")
"2 µM"

---

System: Varicella Zoster Virus (VZV)
Assay: VZV infectious center assay in MRC-5 cells
Assay type: cell-based, human varicella zoster virus (Ellen strain)
Settings: Human alphaherpesvirus 3, MRC5, read-out: ACV Efficacy EC50 (μM), VZV; with n-Docosanol, 30 mM
recordedEndpoint: EC50

>>> measuredresult("Nc1nc2c(ncn2COCCO)c(=O)[nH]1 [ACV, 9-(2-hydroxy)-ethoxymethyl-guanine]")
"0.3 µM"

---

Tested on: Cytomegalovirus (CMV)
Assay: CMV infectious center assay in MRC-5 cells
Type: cell-based, human cytomegalovirus (Towne strain)
Conditions: Human betaherpesvirus 5, MRC5, read-out: ACV Efficacy EC50 (μM), CMV; with n-Docosanol, 30 mM
recordedEndpoint: EC50

>>> measuredresult("Nc1nc2c(ncn2COCCO)c(=O)[nH]1 [ACV, 9-(2-hydroxy)-ethoxymethyl-guanine]")
"2 µM"

---

System: B cell hybridoma (MBI-9)
Experiment: 3H-thymidine incorporation into DNA of B cell hybridoma
Format: cell-based, murine
Settings: Mus musculus, 48 hr incubation, read-out: IC50 estimated by extrapolation
pIC50: −log10 of the molar value.
recordedEndpoint: pIC50

>>> measuredresult("CCCCCCCCCCCCCCCCCCCCCCO")
"~1.70"

---

Tested on: Varicella Zoster Virus (VZV)
Assay: VZV infectious center assay in MRC-5 cells
Assay type: cell-based, human varicella zoster virus (Ellen strain)
Conditions: Human alphaherpesvirus 3, MRC5, read-out: ACV Efficacy EC50 (μM), VZV; with n-Docosanol, 3.3 mM
recordedEndpoint: EC50 (µM)

>>> measuredresult("Nc1nc2c(ncn2COCCO)c(=O)[nH]1 [ACV, 9-(2-hydroxy)-ethoxymethyl-guanine]")
1

---

System: HSV-2
Test: Inhibition of HSV-2 plaque formation in Vero cells
Conditions: Human alphaherpesvirus 2, Vero, read-out: effective concentration required to inhibit plaque formation by 50% (EC50), surfactant suspension, Example 5
pEC50: −log10 of the molar value.
recordedEndpoint: pEC50

>>> measuredresult("CCCCCCCCCCCCCCCCCCCCCCO [n-docosanol]")
2.05
>>> measuredresult("CCCCCCCC/C=C\\CCCCCCCCCCCCO [erucyl alcohol, cis-13-docosen-1-ol]")
3.82

---

Tested on: HSV-2
Experiment: Inhibition of HSV-2 plaque formation in Vero cells
Conditions: Human alphaherpesvirus 2, Vero, read-out: Percent Inhibition of Plaque Formation
recordedEndpoint: inhibition at 1000 µM (%)

>>> measuredresult("CCCCCCCCCCCCCCCCCCCCCC [n-docosane]")
28
>>> measuredresult("CCCCCCCC/C=C\\CCCCCCCCCCCCO [erucyl alcohol, cis-13-docosen-1-ol]")
93
>>> measuredresult("CCCCCCCCCCCCCCCCCCCCCCO [n-docosanol]")
14
>>> measuredresult("CCCCCCCCCCCCCCCCCCCCCC(=O)O [n-docosanoic acid]")
16

Source listed as patent US6440980B1.
